# ASSAY: Plasma escitalopram levels in Phase 1 study
# Assay type: in vivo, human
# APPLIED CONDITIONS: both sexes, human, plasma, po, 20 mg/day, Cohorts 1-5 pooled, placebo infusion instead of 5-HTP, N=10; 20 mg/day oral; mean ± SEM
REPORTED ENDPOINT: concentration at 22 day

Given `CN(C)CCC[C@@]1(c2ccc(F)cc2)OCc2cc(C#N)ccc21` , state its recorded concentration at 22 day.
45.2 ng/mL

* * *

# ASSAY: Plasma 5-HTP pharmacokinetics of 24 h continuous IV 5-HTP infusion, Phase 1 study
# Type: in vivo, human
# APPLIED CONDITIONS: both sexes, human, plasma, iv, 3 mg/kg, Cohort 2, constant rate 3 mg/kg/24 hr IV; healthy adults on escitalopram; mean, N=4 completers
REPORTED ENDPOINT: half-life (h)
Give bare numbers, in h.

Report half-life for N[C@@H](Cc1c[nH]c2ccc(O)cc12)C(=O)O [5-HTP, 5-hydroxytryptophan] please.
4.84

* * *

# ASSAY: Plasma 5-HTP pharmacokinetics of 24 h continuous IV 5-HTP infusion, Phase 1 study
# Assay type: in vivo, human
# APPLIED CONDITIONS: both sexes, human, plasma, iv, 3 mg/kg, Cohort 3, ramp rate 3 mg/kg/24 hr IV; healthy adults on escitalopram; mean, N=6; read-out: CMax
REPORTED ENDPOINT: CMax

Looking for the measured CMax of N[C@@H](Cc1c[nH]c2ccc(O)cc12)C(=O)O [5-HTP, 5-hydroxytryptophan] , can you help?
~592 ng/mL

* * *

# ASSAY: Plasma 5-HTP pharmacokinetics of 24 h continuous IV 5-HTP infusion, Phase 1 study
# Assay type: in vivo, human
# APPLIED CONDITIONS: both sexes, human, plasma, intravenous, 2 mg/kg, individual subjects; Ramp rate 2 mg/kg/24 hr; read-out: CMax
REPORTED ENDPOINT: CMax (ng/mL)
One number for each entry, in ng/mL.

Look at this compound and give its reported CMax. N[C@@H](Cc1c[nH]c2ccc(O)cc12)C(=O)O [5-HTP, 5-hydroxytryptophan]
407

* * *

# ASSAY: Plasma 5-HTP pharmacokinetics of 24 h continuous IV 5-HTP infusion, Phase 1 study
# Assay type: in vivo, human
# APPLIED CONDITIONS: both sexes, human, plasma, iv, 3 mg/kg, Cohort 3, ramp rate 3 mg/kg/24 hr IV; healthy adults on escitalopram; mean, N=6
REPORTED ENDPOINT: AUC(0-inf) (µg·h/mL)
Answers are plain numbers, in µg·h/mL.

I'd like to know its AUC(0-inf). The compound in question is N[C@@H](Cc1c[nH]c2ccc(O)cc12)C(=O)O [5-HTP, 5-hydroxytryptophan]
11

* * *

# ASSAY: Plasma escitalopram levels in Phase 1 study
# Assay type: in vivo, human
# APPLIED CONDITIONS: both sexes, human, plasma, oral, 20 mg/day, Cohort 1 (5-HTP 1 mg/kg, Constant); 20 mg/day oral; mean ± SEM
REPORTED ENDPOINT: concentration at 21 day

Returns the measured concentration at 21 day for the input molecule. Input: CN(C)CCC[C@@]1(c2ccc(F)cc2)OCc2cc(C#N)ccc21 [Escitalopram, escitalopram]
39.8 ng/mL

* * *

# ASSAY: Plasma 5-HTP pharmacokinetics of 24 h continuous IV 5-HTP infusion, Phase 1 study
# Type: in vivo, human
# APPLIED CONDITIONS: both sexes, human, plasma, intravenous, 3 mg/kg, individual subjects; Constant rate 3 mg/kg/24 hr
REPORTED ENDPOINT: AUC(0-inf) (ng·h/mL)
Give bare numbers, in ng·h/mL.

What AUC(0-inf) value was documented for this compound, N[C@@H](Cc1c[nH]c2ccc(O)cc12)C(=O)O [5-HTP, 5-hydroxytryptophan] ?
8000

* * *

# ASSAY: Plasma 5-HTP pharmacokinetics of 24 h continuous IV 5-HTP infusion, Phase 1 study
# Assay type: in vivo, human
# APPLIED CONDITIONS: both sexes, human, plasma, intravenous, 1 mg/kg, individual subjects; Ramp rate 1 mg/kg/24 hr
REPORTED ENDPOINT: AUC(0-inf) (ng·h/mL)
Answers are plain numbers, in ng·h/mL.

Data request, read-out AUC(0-inf), for N[C@@H](Cc1c[nH]c2ccc(O)cc12)C(=O)O [5-HTP, 5-hydroxytryptophan]
2810

* * *

# ASSAY: Plasma 5-HTP pharmacokinetics of 24 h continuous IV 5-HTP infusion, Phase 1 study
# Assay type: in vivo, human
# APPLIED CONDITIONS: both sexes, human, plasma, intravenous, 3 mg/kg, individual subjects; Ramp rate 3 mg/kg/24 hr
REPORTED ENDPOINT: AUC(0-t) (ng·h/mL)
Give bare numbers, in ng·h/mL.

Name the recorded AUC(0-t) for N[C@@H](Cc1c[nH]c2ccc(O)cc12)C(=O)O [5-HTP, 5-hydroxytryptophan] .
11100

* * *

# ASSAY: Plasma escitalopram levels in Phase 1 study
# Type: in vivo, human
# APPLIED CONDITIONS: both sexes, human, plasma, oral, Cohort 3 (5-HTP 3 mg/kg, Ramped); 20 mg/day oral; mean ± SEM
REPORTED ENDPOINT: concentration at 23 day (ng/mL)
One number for each entry, in ng/mL.

# input molecule: CN(C)CCC[C@@]1(c2ccc(F)cc2)OCc2cc(C#N)ccc21 [Escitalopram, escitalopram] ; wanted: its concentration at 23 day
36.6

* * *

# ASSAY: Plasma 5-HTP pharmacokinetics of 24 h continuous IV 5-HTP infusion, Phase 1 study
# Format: in vivo, human
# APPLIED CONDITIONS: both sexes, human, plasma, intravenous, 1 mg/kg, individual subjects; Ramp rate 1 mg/kg/24 hr; read-out: CMax
# Description: Study Design. […] Bioanalysis. […] Plasma 5-HTP levels and plasma escitalopram levels were measured using standard liquid chromatography with tandem mass spectrometry (LC-MS-MS) methods. […] Statistical analysis. […] Descriptive statistics were calculated for each quantitative variable within each treatment group and placebo (n, mean, standard deviation, median, minimum, maximum). […]
REPORTED ENDPOINT: CMax (ng/mL)
Answers are plain numbers, in ng/mL.

Quick one: CMax for N[C@@H](Cc1c[nH]c2ccc(O)cc12)C(=O)O [5-HTP, 5-hydroxytryptophan] ?
179

* * *

# ASSAY: Plasma 5-HTP pharmacokinetics of 24 h continuous IV 5-HTP infusion, Phase 1 study
# Format: in vivo, human
# APPLIED CONDITIONS: both sexes, human, plasma, intravenous, 1 mg/kg, individual subjects; Ramp rate 1 mg/kg/24 hr
REPORTED ENDPOINT: AUC(0-t) (ng·h/mL)
Answers are plain numbers, in ng·h/mL.

Query (compound): N[C@@H](Cc1c[nH]c2ccc(O)cc12)C(=O)O [5-HTP, 5-hydroxytryptophan] ; field requested: AUC(0-t)
2770

* * *

# ASSAY: Plasma 5-HTP pharmacokinetics of 24 h continuous IV 5-HTP infusion, Phase 1 study
# Assay type: in vivo, human
# APPLIED CONDITIONS: both sexes, human, plasma, intravenous, 2 mg/kg, individual subjects; Ramp rate 2 mg/kg/24 hr
REPORTED ENDPOINT: AUC(0-t)
Don't forget the unit after the number, please.

Fill blank: measured AUC(0-t) of the compound N[C@@H](Cc1c[nH]c2ccc(O)cc12)C(=O)O [5-HTP, 5-hydroxytryptophan] is ____.
6540 ng·h/mL

* * *

# ASSAY: Plasma escitalopram levels in Phase 1 study
# Assay type: in vivo, human
# APPLIED CONDITIONS: both sexes, human, plasma, oral, 10 mg/day, Cohort 5 (5-HTP 1 mg/kg, Ramped); after 10 mg/day oral; mean ± SEM
REPORTED ENDPOINT: concentration at 7 day (ng/mL)
One number for each entry, in ng/mL.

Tell me the measured concentration at 7 day of `CN(C)CCC[C@@]1(c2ccc(F)cc2)OCc2cc(C#N)ccc21` , please.
11.4

* * *

# ASSAY: Plasma 5-HTP pharmacokinetics of 24 h continuous IV 5-HTP infusion, Phase 1 study
# Type: in vivo, human
# APPLIED CONDITIONS: both sexes, human, plasma, iv, 1 mg/kg, Cohort 5, ramp rate 1 mg/kg/24 hr IV; healthy adults on escitalopram; mean, N=5; read-out: CMax
REPORTED ENDPOINT: CMax (ng/mL)
One number for each entry, in ng/mL.

// CMax lookup, key: N[C@@H](Cc1c[nH]c2ccc(O)cc12)C(=O)O [5-HTP, 5-hydroxytryptophan]
209

* * *

# ASSAY: Plasma 5-HTP pharmacokinetics of 24 h continuous IV 5-HTP infusion, Phase 1 study
# Type: in vivo, human
# APPLIED CONDITIONS: both sexes, human, plasma, iv, 1 mg/kg, Cohort 5, ramp rate 1 mg/kg/24 hr IV; healthy adults on escitalopram; mean, N=5
REPORTED ENDPOINT: half-life (h)
Answers are plain numbers, in h.

Which value of half-life has been reported for N[C@@H](Cc1c[nH]c2ccc(O)cc12)C(=O)O [5-HTP, 5-hydroxytryptophan] in the records?
4.52

These entries and their values trace back to patent US11779567B2.
